Target: hHER3 full length (human, UniProt P21860 20-1342)
Assay: cell-based or functional assay
readout.kind: inhibition of HRG1-β1 induced pERK1/2, MCF-7

Below: 2 binders and their reported inhibition of HRG1-β1 induced pERK1/2, MCF-7.
// query inhibition of HRG1-β1 induced pERK1/2, MCF-7 value for entry 05A09 (VHH) VHH: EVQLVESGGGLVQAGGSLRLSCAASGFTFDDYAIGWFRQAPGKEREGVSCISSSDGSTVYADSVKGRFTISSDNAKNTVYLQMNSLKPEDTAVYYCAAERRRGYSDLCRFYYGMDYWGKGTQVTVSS
< 50 % inhibition

Similarly, 23F05 (VHH) VHH: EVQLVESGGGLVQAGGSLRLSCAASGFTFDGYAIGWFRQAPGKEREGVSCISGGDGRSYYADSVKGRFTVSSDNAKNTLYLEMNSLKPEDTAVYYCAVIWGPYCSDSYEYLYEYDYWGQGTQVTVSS ?
< 50 % inhibition

Consider now this further binder.
// query inhibition of HRG1-β1 induced pERK1/2, MCF-7 value for entry 18G11 (VHH, c-myc, His6-tagged form as expressed; also called HER3MS18G11; HER3MS018G11) VHH: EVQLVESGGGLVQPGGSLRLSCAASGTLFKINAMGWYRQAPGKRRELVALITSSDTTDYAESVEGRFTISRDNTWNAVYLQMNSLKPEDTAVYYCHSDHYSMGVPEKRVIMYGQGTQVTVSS
< 50 % inhibition
